Recorded Ki values (human vasopressin V1b receptor (Homo sapiens)) are given below.
reported metric: Ki

compound | target system | reported value
CCOc1ncccc1C1(OC(=O)N2CCC(N3CCN(CC)CC3)CC2)C(=O)N(S(=O)(=O)c2ccc(OC)cc2OC)c2ccc(C#N)cc21 (racemic) [Example 37] | human vasopressin V1b receptor (Homo sapiens) | < 10 nM
CCOc1ncccc1C1(OC(=O)N2CCN(C3CCN(C)CC3)CC2)C(=O)N(S(=O)(=O)c2ccccc2)c2ccc(C#N)cc21 (single isomer, unassigned; (-)) [Example 4B] | human vasopressin V1b receptor (Homo sapiens) | < 10 nM
CCOc1ncccc1C1(OC(=O)N2CCN(C3CCN(CC)CC3)CC2)C(=O)N(S(=O)(=O)c2ccccc2)c2ccc(C#N)cc21.O=C(O)C(F)(F)F (racemic) [Example 10, trifluoroacetic acid salt] | human vasopressin V1b receptor (Homo sapiens) | < 10 nM

* * *

Target: recombinant human oxytocin receptors (Homo sapiens)
Construct: expressed in transfected cells; host or cells: HEK-293 (transient)
Sequence (P30559 whole entry): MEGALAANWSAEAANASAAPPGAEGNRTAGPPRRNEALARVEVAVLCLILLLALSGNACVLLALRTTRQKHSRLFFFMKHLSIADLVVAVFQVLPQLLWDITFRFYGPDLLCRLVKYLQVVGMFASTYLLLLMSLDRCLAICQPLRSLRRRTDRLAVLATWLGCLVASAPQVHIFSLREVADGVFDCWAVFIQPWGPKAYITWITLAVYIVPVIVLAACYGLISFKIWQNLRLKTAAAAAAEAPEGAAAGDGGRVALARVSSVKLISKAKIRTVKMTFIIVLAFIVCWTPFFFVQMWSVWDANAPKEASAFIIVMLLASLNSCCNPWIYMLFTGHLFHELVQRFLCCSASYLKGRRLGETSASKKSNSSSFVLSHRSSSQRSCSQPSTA
Assay: Oxytocin receptor binding assay
Details: selectivity quotient, human OT versus human V1b
Structures can show the parent of a compound that is named as a salt.

compound | Ki(h-OT)/Ki(h-V1b)*
CCOc1ncccc1C1(OC(=O)N2CCC(N3CCN(CC)CC3)CC2)C(=O)N(S(=O)(=O)c2ccccc2)c2ccc(C#N)cc21 (racemic) | +++ (>45)
CCOc1ncccc1C1(OC(=O)N2CCN(C3CCN(C)CC3)CC2)C(=O)N(S(=O)(=O)c2ccccc2OC)c2ccc(C#N)cc21 (racemic) [Example 2] | +++ (>45)
CCOc1ncccc1C1(OC(=O)N2CCC(N3CCN(CC)CC3)CC2)C(=O)N(S(=O)(=O)c2ccc(OC)cc2OC)c2ccc(C#N)cc21 (racemic) | +++ (>45)
CCOc1ncccc1C1(OC(=O)N2CCN(C3CCN(CC)CC3)CC2)C(=O)N(S(=O)(=O)c2ccccc2)c2ccc(C#N)cc21.O=C(O)C(F)(F)F (racemic) | +++ (>45)
CCOc1ncccc1C1(OC(=O)N2CCN(C3CCNCC3)CC2)C(=O)N(S(=O)(=O)c2ccc(OC)cc2OC)c2ccc(C#N)cc21 (racemic) [Example 25, bis(trifluoroacetic acid) salt] | + (15-25)
CCOc1ncccc1C1(OC(=O)N2CCN(C3CCN(C)CC3)CC2)C(=O)N(S(=O)(=O)c2ccccc2)c2ccc(C#N)cc21 (single isomer, unassigned; (-)) [Example 4B] | +++ (>45)
CCOc1ncccc1C1(OC(=O)N2CCN(C3CCN(C)CC3)CC2)C(=O)N(S(=O)(=O)c2ccccc2)c2ccc(C#N)cc21 (racemic) [Example 4] | +++ (>45)
CCOc1ncccc1C1(OC(=O)N2CCC(N3CCNCC3)CC2)C(=O)N(S(=O)(=O)c2ccc(OC)cc2OC)c2ccc(C#N)cc21 (stereo not drawn) [Example 55, bis(trifluoroacetic acid) salt] | + (15-25)

* * *

Assay: Determination of the microsomal half-life / microsomal clearance (human liver microsomes)
Format: in vitro ADME
Conditions: pH 7.4, 0.5 μM test substance
Counter-ions that a name gives are not always drawn.
reported metric: microsomal CLint at 0.5 μM

molecule | reported value
CCOc1ncccc1C1(OC(=O)N2CCN(C3CCN(C)CC3)CC2)C(=O)N(S(=O)(=O)c2ccccc2)c2ccc(C#N)cc21 (single isomer, unassigned; (-)) [Example 4B] | < 50 µL/min/mg
CCOc1ncccc1C1(OC(=O)N2CCN(C3CCNCC3)CC2)C(=O)N(S(=O)(=O)c2ccccc2)c2ccc(C#N)cc21 (racemic) [Example 28, bis(trifluoroacetic acid) salt] | < 50 µL/min/mg
CCOc1ncccc1C1(OC(=O)N2CCC(N3CCN(C)CC3)CC2)C(=O)N(S(=O)(=O)c2ccc(OC)cc2)c2ccc(C#N)cc21 (racemic) | 75 to 200 µL/min/mg
CCOc1ncccc1C1(OC(=O)N2CCC(N3CCN(C)CC3)CC2)C(=O)N(S(=O)(=O)c2ccccc2OC)c2ccc(C#N)cc21 (racemic) | 75 to 200 µL/min/mg
CCOc1ncccc1C1(OC(=O)N2CCC(N3CCN(CC)CC3)CC2)C(=O)N(S(=O)(=O)c2ccccc2)c2ccc(C#N)cc21 (racemic) | 50 to 75 µL/min/mg
